Cited source: the Immune Epitope Database (IEDB)

Tgt: HLA-A*02:01
Protocol Notes: IEDB peptide-MHC binding, purified MHC/competitive/fluorescence; filed as Kd, often an IC50 or EC50 that approximates it; bounds were set here for any values at or beyond the usual limits of such assays
Experimental Setup: source organism: Salmonella enterica subsp. enterica serovar Typhi str. CT18
pKd: −log10 of the molar value.
Reported Metric: pKd

What pKd value was documented for this sequence, KSKPRIHGY ?
≤ 4.70

----------
Tgt: HLA-A*68:02
Protocol Notes: IEDB peptide-MHC binding, purified MHC/competitive/fluorescence; filed as Kd, often an IC50 or EC50 that approximates it; bounds were set here for any values at or beyond the usual limits of such assays
Experimental Setup: source organism: Entamoeba histolytica HM-1:IMSS
Reported Metric: Kd

What Kd value was documented for this sequence, IEAKINVAD ?
≥ 20 µM

----------
Tgt: HLA-A*01:01
Protocol Notes: IEDB peptide-MHC binding, purified MHC/direct/fluorescence; filed as Kd, often an IC50 or EC50 that approximates it; bounds were set here for any values at or beyond the usual limits of such assays
Experimental Setup: source organism: Influenza A virus (A/quail/Hong Kong/FY298/00(H9N2))
Reported Metric: Kd

GET /values?readout=Kd&system=HLA-A*01:01&item= SYLIRALTL
≥ 20 µM

----------
Tgt: HLA-A*03:01
Protocol Notes: IEDB peptide-MHC binding, purified MHC/competitive/radioactivity; filed as Kd, often an IC50 or EC50 that approximates it; bounds were set here for any values at or beyond the usual limits of such assays
Experimental Setup: source organism: Vaccinia virus WR
Entries annotated with measured log10 of Kd
The base-10 logarithm of Kd, taken with Kd in µM, is what appears here.

These solved cases illustrate the format of a correct answer.
>>> df
   entry_sequence          tgt  quantitative_readout
0       FLLFLEITY  HLA-A*03:01                  1.02
1      KAKWLTPFEK  HLA-A*03:01                 -0.67
2       RSIAMLKSK  HLA-A*03:01                 -0.67
3      NLKSLLLENK  HLA-A*03:01                 -1.05
4      DSMDVLAEKK  HLA-A*03:01                 -0.46

What log10 of Kd value was documented for this sequence, KSGGLSSGFY ?
0.41

What log10 of Kd value was documented for this sequence, LIVSLCPTK ?
0.92

What log10 of Kd value was documented for this sequence, KASTISWMMK ?
-1.35

What log10 of Kd value was documented for this sequence, TLDTMDDMK ?
1.07

What log10 of Kd value was documented for this sequence, TTAFFNTCK ?
-1.34

What log10 of Kd value was documented for this sequence, IAQYKCVTIK ?
-1.54

What log10 of Kd value was documented for this sequence, DLLNSMMNR ?
0.34

What log10 of Kd value was documented for this sequence, FTLNHVLALK ?
-1.97

----------
Tgt: HLA-A*02:19
Protocol Notes: IEDB peptide-MHC binding, purified MHC/direct/fluorescence; filed as Kd, often an IC50 or EC50 that approximates it; bounds were set here for any values at or beyond the usual limits of such assays
Experimental Setup: source organism: Influenza A virus(A/swine/Henan/2/2004(H9N2))
Reported Metric: pKd
The meaning of pKd here: minus log10 of the concentration in molar units.

What pKd value was documented for this sequence, LLTEVETYV ?
8.70

----------
Tgt: HLA-A*02:06
Protocol Notes: IEDB peptide-MHC binding, purified MHC/competitive/radioactivity; filed as Kd, often an IC50 or EC50 that approximates it; bounds were set here for any values at or beyond the usual limits of such assays
Experimental Setup: source organism: Dengue virus 4 Philippines/H241/1956
Reported Metric: Kd (nM)
Unit nM implied. Number only.

These solved cases illustrate the format of a correct answer.
In [3]: df
Out[3]:
   entry_sequence          tgt  reported_metric  quantitative_readout
0       MTLWYMWQV  HLA-A*02:06               Kd                  2.67
1       YQVKTETTI  HLA-A*02:06               Kd                  26.3
2       FIDGISLGL  HLA-A*02:06               Kd                  32.4

GET /values?readout=Kd&system=HLA-A*02:06&item= MVAGGLLLA
17.6

GET /values?readout=Kd&system=HLA-A*02:06&item= MVLAFITFL
3.45

----------
Tgt: HLA-B*58:01
Protocol Notes: IEDB peptide-MHC binding, purified MHC/direct/fluorescence; filed as Kd, often an IC50 or EC50 that approximates it; bounds were set here for any values at or beyond the usual limits of such assays
Experimental Setup: source organism: Vibrio parahaemolyticus
Reported Metric: Kd

What Kd value was documented for this sequence, MLDQFGVSY ?
≥ 20 µM

----------
Tgt: HLA-A*68:01
Protocol Notes: IEDB peptide-MHC binding, purified MHC/competitive/radioactivity; filed as Kd, often an IC50 or EC50 that approximates it; bounds were set here for any values at or beyond the usual limits of such assays
Experimental Setup: source organism: Mammarenavirus machupoense
Reported Metric: pKd
The meaning of pKd here: minus log10 of the concentration in molar units.

GET /values?readout=pKd&system=HLA-A*68:01&item= SNIQFNISK
7.82

----------
Tgt: HLA-B*46:01
Protocol Notes: IEDB peptide-MHC binding, purified MHC/direct/fluorescence; filed as Kd, often an IC50 or EC50 that approximates it; bounds were set here for any values at or beyond the usual limits of such assays
Experimental Setup: source organism: Rickettsia bellii
Reported Metric: Kd

What Kd value was documented for this sequence, NIDPEHLDY ?
≥ 20 µM

----------
Tgt: HLA-A*02:01
Protocol Notes: IEDB peptide-MHC binding, purified MHC/competitive/radioactivity; filed as Kd, often an IC50 or EC50 that approximates it; bounds were set here for any values at or beyond the usual limits of such assays
Experimental Setup: source organism: Human immunodeficiency virus type 1 BH10
Reported Metric: pKd
The meaning of pKd here: minus log10 of the concentration in molar units.

What pKd value was documented for this sequence, RGPGRAFVTI ?
5.34

----------
Tgt: HLA-B*18:01
Protocol Notes: IEDB peptide-MHC binding, purified MHC/direct/fluorescence; filed as Kd, often an IC50 or EC50 that approximates it; bounds were set here for any values at or beyond the usual limits of such assays
Experimental Setup: source organism: Rickettsia sibirica 246
Reported Metric: Kd

What Kd value was documented for this sequence, EFVSANLAM ?
≥ 20 µM

----------
Tgt: HLA-A*11:01
Protocol Notes: IEDB peptide-MHC binding, purified MHC/competitive/radioactivity; filed as Kd, often an IC50 or EC50 that approximates it; bounds were set here for any values at or beyond the usual limits of such assays
Experimental Setup: source organism: Vaccinia virus WR
Reported Metric: pKd
The meaning of pKd here: minus log10 of the concentration in molar units.

These solved cases illustrate the format of a correct answer.
>>> df
   entry_sequence  quantitative_readout
0       FLLFLEITY                  4.80
1       NIISRTRLY                  5.99

What pKd value was documented for this sequence, GLSLQDYCY ?
6.44

What pKd value was documented for this sequence, YIIRRSGCR ?
6.25

What pKd value was documented for this sequence, TLNEYKQLY ?
6.91

What pKd value was documented for this sequence, AIFTYTGGY ?
6.55

What pKd value was documented for this sequence, QMRTPLHKY ?
5.75

What pKd value was documented for this sequence, AISSRVDRY ?
6.79

----------
Entries annotated with measured pKd
Tgt: HLA-A*33:01
Protocol Notes: IEDB peptide-MHC binding, purified MHC/competitive/radioactivity; filed as Kd, often an IC50 or EC50 that approximates it; bounds were set here for any values at or beyond the usual limits of such assays
Experimental Setup: source organism: Vaccinia virus WR
The meaning of pKd here: minus log10 of the concentration in molar units.

In [3]: df
Out[3]:
   entry_sequence  quantitative_readout
0       NIISRTRLY                  4.99
1       NMKPNFWSR                  8.97
2      LMHPDFCKNR                  6.60
3      TSLAIKNYYR                  6.59
4       YTLFQQTGR                  7.62
5       DLIAMENLK                  6.23

What pKd value was documented for this sequence, YIIRRSGCR ?
6.72

What pKd value was documented for this sequence, TLNEYKQLY ?
5.15

What pKd value was documented for this sequence, YFISIYSRPK ?
6.97

What pKd value was documented for this sequence, HIKVDHPDK ?
6.53

What pKd value was documented for this sequence, NLKSLLLENK ?
5.67

What pKd value was documented for this sequence, VFYRSGTETK ?
5.19

What pKd value was documented for this sequence, NAILHNIYR ?
8.74

What pKd value was documented for this sequence, TMKAIEKDR ?
6.17

What pKd value was documented for this sequence, NVKHTSVSAK ?
5.08

What pKd value was documented for this sequence, VVRDFENYVK ?
5.09

What pKd value was documented for this sequence, DLLNSMMNR ?
8.39

What pKd value was documented for this sequence, DSMDVLAEKK ?
5.45

What pKd value was documented for this sequence, FIESSICLDY ?
5.25

What pKd value was documented for this sequence, QTVNICIFY ?
4.98
